Values from PubChem BioAssay (EPA / NIEHS)

- Protocol description: ATG_Oct_MLP_CIS: Attagene CIS-FACTORIAL HepG2 Assay for human Octamer-Binding Transcription Factor (Oct) (AID 2282993)
- Cond: HepG2 Attagene cis-factorial Oct reporter, mRNA; actives raise or lower the signal
The source made the active and inactive calls. Rule for the calls: active = hit-call score of the fitted dose curve at least 0.9, where 1 is the maximum; inactive = score below 0.9.
Classes used: 1 = active, -1 = inactive

Test smiles	Label value
CC1(C)NC(=O)N(c2ccc([N+](=O)[O-])c(C(F)(F)F)c2)C1=O	-1
NCc1cccc(C2CCN(C(=O)c3ccc(C#Cc4ccccc4F)o3)CC2)c1	1
CCN(Cc1cccnc1)C(=O)c1cccc(Cl)c1[C@]1(C)C(=O)N(Cc2ccc(OC)cc2OC)c2ccc(Cl)cc21	1
Cc1occc1C(=O)Nc1ccc(C(=O)N2CCC(F)(F)/C(=C\C(=O)N3CCC(N4CCCCC4)CC3)c3ccccc32)cc1	1
CC1=CC(=O)/C(=C(/C)O)C(=O)O1	-1
CCCCCCCCN(C)CCCCCCCC	-1
C[C@]12CC[C@@H]3c4ccc(O)cc4CC[C@H]3[C@@H]1CCC2=O	-1
Cc1cc2c(cc1C(F)(F)F)N(C(=O)Nc1ccc(Oc3cccnc3C)nc1)CC2	-1
COc1cc(C(=O)NC2CCN(C)CC2)ccc1Nc1ncc2c(n1)N(C1CCCC1)CC(F)(F)C(=O)N2C	1
CN(C)C(=O)C1(N2CCCCC2)CCN(CC[C@@]2(c3ccc(Cl)c(Cl)c3)CN(C(=O)c3ccccc3)CCO2)CC1	-1
CCCCCCCCOc1ccc(C(=O)c2ccccc2)c(O)c1	-1
CCCCCCCCCC(=O)O	-1
O=C(OCCCCCCOC(=O)c1ccccc1)c1ccccc1	-1
CCN(Cc1cccc(S(=O)(=O)O)c1)c1ccc(C(=C2C=CC(=[N+](CC)Cc3cccc(S(=O)(=O)O)c3)C=C2)c2ccccc2S(=O)(=O)[O-])cc1	-1
O=c1ccc2ccccc2o1	-1
O=C=NCCCCCCN=C=O	-1
O=C1c2ccccc2C(=O)N1CCc1noc(-c2ccc(CN3CCCCCC3)s2)n1	-1
